Biological target: PBP2a (Staphylococcus aureus, UniProt P07944)
Sequence (P07944 whole entry): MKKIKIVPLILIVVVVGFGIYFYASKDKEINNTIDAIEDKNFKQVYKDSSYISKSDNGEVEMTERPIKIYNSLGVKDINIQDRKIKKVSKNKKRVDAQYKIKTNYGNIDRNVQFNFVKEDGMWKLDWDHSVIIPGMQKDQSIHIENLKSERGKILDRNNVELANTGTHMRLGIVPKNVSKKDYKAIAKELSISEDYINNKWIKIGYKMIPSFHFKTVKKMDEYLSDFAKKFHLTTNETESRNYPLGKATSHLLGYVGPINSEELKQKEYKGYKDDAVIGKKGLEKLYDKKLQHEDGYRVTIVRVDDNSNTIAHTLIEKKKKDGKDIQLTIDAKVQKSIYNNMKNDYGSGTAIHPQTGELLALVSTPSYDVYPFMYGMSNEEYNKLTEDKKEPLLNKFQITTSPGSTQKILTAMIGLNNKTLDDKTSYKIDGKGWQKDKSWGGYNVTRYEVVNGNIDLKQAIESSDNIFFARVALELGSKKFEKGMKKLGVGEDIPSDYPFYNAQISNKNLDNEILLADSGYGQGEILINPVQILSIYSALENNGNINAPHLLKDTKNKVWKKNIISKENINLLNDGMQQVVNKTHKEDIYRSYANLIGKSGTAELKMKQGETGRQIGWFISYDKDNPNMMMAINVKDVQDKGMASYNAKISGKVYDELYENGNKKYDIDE
Assay: PBP2 assay (Villegas-Esterada et al.)
Format: biochemical
Conditions: Table 10
Result type: PBP2a* (inhibitory concentration)

O=C(O)c1c(Br)c(Br)c(Br)c(Br)c1C(=O)Nc1ccc(OCc2cccc(C(F)(F)F)c2)c(Cl)c1 [Compound 390]
xxx
CCCCCCCCOc1ccc(NC(=O)c2ccccc2C(=O)O)cc1Cl [Compound 300]
xxx
CC(Oc1ccc(NC(=O)c2c(Br)c(Br)c(Br)c(Br)c2C(=O)O)cc1Cl)c1ccccc1 (centres unmarked) [Compound 382]
xxx
O=C(O)c1c(Cl)c(Cl)c(Cl)c(Cl)c1C(=O)Nc1ccc(Oc2cc(C(F)(F)F)cc(C(F)(F)F)c2)cc1 [Compound 413]
xxx
O=C(O)c1c(Cl)c(Cl)c(Cl)c(Cl)c1C(=O)Nc1ccc(OCc2cccc(OC(F)(F)F)c2)c(Cl)c1 [Compound 419]
xxx
O=C(O)c1c(Br)c(Br)c(Br)c(Br)c1C(=O)Nc1ccc(Oc2ccccc2)cc1 [Compound 222]
xx
O=C(O)c1ccc([N+](=O)[O-])cc1C(=O)Nc1ccc(OCc2cccc(OC(F)(F)F)c2)c(Cl)c1 [Compound 422]
xxx
Cc1ccccc1COc1ccc(NC(=O)c2c(Br)c(Br)c(Br)c(Br)c2C(=O)O)cc1Cl [Compound 386]
xxx
CCC(CO)NC(=O)C1=C(C(=O)O)SCCS1 (centres unmarked) [Compound 126]
xx
Cc1ccccc1COc1ccc(NC(=O)c2c(Cl)c(Cl)c(Cl)c(Cl)c2C(=O)O)cc1Cl [Compound 385]
xxx
O=C(O)C1=C(C(=O)N[C@@H](CO)[C@@H](O)c2ccccc2)SCCS1 [Compound 127]
xx
O=C(O)c1c(Br)c(Br)c(Br)c(Br)c1C(=O)Nc1ccc(Oc2cc(C(F)(F)F)cc(C(F)(F)F)c2)cc1 [Compound 414]
xxx
CCCCCCCCOc1ccc(NC(=O)c2c(F)c(F)c(F)c(F)c2C(=O)O)cc1Cl [Compound 301]
xxx
O=C(O)c1c(Br)c(Br)c(Br)c(Br)c1C(=O)Nc1ccc(OCc2cccc(OC(F)(F)F)c2)c(Cl)c1 [Compound 420]
xxx

----------
Molecular target: OXA-10 (class D β-lactamase) (Pseudomonas aeruginosa, UniProt P14489)
Sequence (P14489 20-266, species assumed): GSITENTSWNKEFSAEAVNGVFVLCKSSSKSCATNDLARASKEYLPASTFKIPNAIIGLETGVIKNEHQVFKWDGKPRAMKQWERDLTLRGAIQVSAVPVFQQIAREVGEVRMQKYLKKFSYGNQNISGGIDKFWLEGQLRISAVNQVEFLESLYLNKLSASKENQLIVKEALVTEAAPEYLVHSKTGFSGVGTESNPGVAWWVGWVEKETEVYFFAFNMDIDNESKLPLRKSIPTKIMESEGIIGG
Assay: β-Lactamase assay (nitrocefin colour change), OXA-10
Format: biochemical
Conditions: Table 10; class symbols x/xx/xxx, key not given
Result type: OXA-10

CCCCCCCCOc1ccc(NC(=O)c2c(Br)c(Br)c(Br)c(Br)c2C(=O)O)cn1
xxx
O=C(O)c1c(Cl)c(Cl)c(Cl)c(Cl)c1C(=O)Nc1ccc(OCc2cccc(OC(F)(F)F)c2)c(Cl)c1
xxx
O=C(O)CC1(CC(=O)Nc2ccc(Cl)c(C(F)(F)F)c2)CCCC1
xx
CCCCCCCCOc1ccc(NC(=O)c2c(F)c(F)c(F)c(F)c2C(=O)O)cc1Cl
xxx
CCCCCCCCCCCCCCCCOc1ccc(NC(=O)c2c(F)c(F)c(F)c(F)c2C(=O)O)cc1
xxx
Cc1ccccc1COc1ccc(NC(=O)c2c(Br)c(Br)c(Br)c(Br)c2C(=O)O)cc1Cl
xxx
O=C(O)c1ccc([N+](=O)[O-])cc1C(=O)Nc1ccc(OCc2cccc(OC(F)(F)F)c2)c(Cl)c1
xx
CCCCCCCCOc1ccc(NC(=O)c2c(F)c(F)c(F)c(F)c2C(=O)O)cc1
xxx

----------
Molecular target: P99 (class C β-lactamase) (Enterobacter cloacae, UniProt P05364)
Sequence (P05364 21-381): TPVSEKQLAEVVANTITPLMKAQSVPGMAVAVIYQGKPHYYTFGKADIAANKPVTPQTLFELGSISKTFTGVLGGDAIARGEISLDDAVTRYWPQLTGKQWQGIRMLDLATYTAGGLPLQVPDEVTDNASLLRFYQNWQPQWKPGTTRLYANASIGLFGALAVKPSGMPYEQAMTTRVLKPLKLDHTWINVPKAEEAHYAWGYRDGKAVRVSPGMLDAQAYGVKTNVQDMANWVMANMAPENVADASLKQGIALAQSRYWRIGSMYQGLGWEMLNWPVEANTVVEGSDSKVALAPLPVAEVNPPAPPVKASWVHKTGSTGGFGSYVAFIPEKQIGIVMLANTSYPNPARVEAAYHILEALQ
Test: β-Lactamase assay (nitrocefin colour change), P99
Assay type: biochemical
Conditions: Table 10; class symbols x/xx/xxx, key not given
Result type: P99

CC(Oc1ccc(NC(=O)c2c(Br)c(Br)c(Br)c(Br)c2C(=O)O)cc1Cl)c1ccccc1 (centres unmarked)
xxx
O=C(O)c1c(Br)c(Br)c(Br)c(Br)c1C(=O)Nc1ccc(OCc2cccc(C(F)(F)F)c2)c(Cl)c1
xxx
O=C(O)c1c(Br)c(Br)c(Br)c(Br)c1C(=O)Nc1ccc(Cl)c(C(F)(F)F)c1
xxx
CCCCCCCCOc1ccc(NC(=O)c2c(F)c(F)c(F)c(F)c2C(=O)O)cc1
xxx
O=C1C2=C(SCCS2)C(=O)N1C(CO)[C@H](O)c1ccccc1 (some centres unmarked)
xxx
O=C(O)c1c(Br)c(Br)c(Br)c(Br)c1C(=O)Nc1ccc(CO)cc1
xxx
CCCCCCCCOc1ccc(N(C)C(=O)c2c(F)c(F)c(F)c(F)c2C(=O)O)cc1
xx
CCCCCCCCOc1ccc(NC(=O)c2c(Br)c(Br)c(Br)c(Br)c2C(=O)O)cc1
xxx
CCCCCCCCOc1ccc(NC(=O)c2ccccc2C(=O)O)cc1
xxx
O=C(O)c1c(Cl)c(Cl)c(Cl)c(Cl)c1C(=O)Nc1ccc(OCc2cccc(C(F)(F)F)c2)c(Cl)c1
xxx
O=C1C2=C(SCCS2)C(=O)N1[C@@H](CO)[C@@H](O)c1ccc([N+](=O)[O-])cc1
xx
CCCCCCCCCCCCCCCCOc1ccc(NC(=O)c2c(Cl)c(Cl)c(Cl)c(Cl)c2C(=O)O)cc1
xxx
O=C(O)c1c(Cl)c(Cl)c(Cl)c(Cl)c1C(=O)Nc1ccc(Cl)c(C(F)(F)F)c1
xx
O=C(O)c1c(Cl)c(Cl)c(Cl)c(Cl)c1C(=O)Nc1ccc(Oc2cc(C(F)(F)F)cc(C(F)(F)F)c2)cc1
xxx
Cc1ccccc1COc1ccc(NC(=O)c2c(Br)c(Br)c(Br)c(Br)c2C(=O)O)cc1Cl
xxx
CCCCCCCCOc1ccc(NC(=O)c2c(Cl)c(Cl)c(Cl)c(Cl)c2C(=O)O)cn1
xxx
CCCCCCCCCCCCCCCCOc1ccc(NC(=O)c2c(F)c(F)c(F)c(F)c2C(=O)O)cc1
xx
O=C(O)c1c(Cl)c(Cl)c(Cl)c(Cl)c1C(=O)Nc1ccc(OCc2ccccc2)c(Cl)c1
xxx
CCCCCCCCOc1ccc(NC(=O)c2c(Cl)c(Cl)c(Cl)c(Cl)c2C(=O)O)cc1
xxx
CCCCCCCCOc1ccc(NC(=O)c2c(F)c(F)c(F)c(F)c2C(=O)O)cc1Cl
xxx
Cc1ccccc1COc1ccc(NC(=O)c2c(Cl)c(Cl)c(Cl)c(Cl)c2C(=O)O)cc1Cl
xx
N#Cc1cccc(NC(=O)c2c(Br)c(Br)c(Br)c(Br)c2C(=O)[O-])c1.[Na+]
xxx
CCCCCCCCOc1ccc(NC(=O)c2ccccc2C(=O)O)cc1Cl
xx
O=C(O)c1c(Br)c(Br)c(Br)c(Br)c1C(=O)Nc1ccc(OCc2cccc(OC(F)(F)F)c2)c(Cl)c1
xx
O=C(O)c1c(Cl)c(Cl)c(Cl)c(Cl)c1C(=O)Nc1ccc(OCc2cccc(OC(F)(F)F)c2)c(Cl)c1
xx
O=C(O)c1c(Br)c(Br)c(Br)c(Br)c1C(=O)Nc1cccc(C(F)(F)F)c1
xx
O=C(O)c1c(Br)c(Br)c(Br)c(Br)c1C(=O)Nc1ccc(Oc2cc(C(F)(F)F)cc(C(F)(F)F)c2)cc1
xxx
CCCCCCCCOc1ccc(NC(=O)c2c(Br)c(Br)c(Br)c(Br)c2C(=O)O)cn1
xxx
CC(=O)OCC1=C(C(=O)O)N2C(=O)C(N3C(=O)C4=C(SCCS4)C3=O)C2SC1 (centres unmarked)
xxx
O=C(O)c1ccc([N+](=O)[O-])cc1C(=O)Nc1ccc(OCc2cccc(OC(F)(F)F)c2)c(Cl)c1
xx
O=C(O)c1c(Cl)c(Cl)c(Cl)c(Cl)c1C(=O)Nc1cccc(Oc2ccccc2)c1
xx
CCCCCCCCCCCCCCCCOc1ccc(NC(=O)c2c(Br)c(Br)c(Br)c(Br)c2C(=O)O)cc1
xxx

----------
Molecular target: OXA-10 (class D β-lactamase) (Pseudomonas aeruginosa, UniProt P14489)
Assay: β-Lactamase assay (nitrocefin colour change), OXA-10
Conditions: nitrocefin 100 μM, 10 nM enzyme, 5 min pre-incubation; read-out: IC50s OXA-10
pIC50: −log10 of the molar value.
Result type: pIC50

O=C(O)c1c(Br)c(Br)c(Br)c(Br)c1C(=O)Nc1ccc(OCc2cccc(OC(F)(F)F)c2)c(Cl)c1
5.08
CCCCCCCCOc1ccc(NC(=O)c2c(Br)c(Br)c(Br)c(Br)c2C(=O)O)cn1
4.88
CCCCCCCCOc1ccc(NC(=O)c2c(Cl)c(Cl)c(Cl)c(Cl)c2C(=O)O)cc1
5.00

----------
Catalogue of compounds with associated MIC
Test system: S. aureus NRS11 (Mec^S)
Experiment: MIC against S. aureus NRS11 (Table 13)
Assay type: cell-based, Staphylococcus aureus
Settings: Staphylococcus aureus, compounds dissolved in DMSO or 1% sodium carbonate, read-out: MIC
Result type: MIC (µg/mL)

CCCCCCCCOc1ccc(NC(=O)c2c(Cl)c(Cl)c(Cl)c(Cl)c2C(=O)O)cn1 [Compound 345]
16
CCCCCCCCOc1ccc(NC(=O)c2c(F)c(F)c(F)c(F)c2C(=O)O)c[n+]1[O-] [Compound 359]
1000
COCCOCCOc1ccc(NC(=O)c2c(Br)c(Br)c(Br)c(Br)c2C(=O)O)c[n+]1[O-] [Compound 410]
500
CC(Oc1ccc(NC(=O)c2c(Cl)c(Cl)c(Cl)c(Cl)c2C(=O)O)cc1Cl)c1ccccc1 (stereo not shown) [Compound 381]
16
O=C(O)c1c(F)c(F)c(F)c(F)c1C(=O)Nc1ccc(OCc2cccc(C(F)(F)F)c2)c(Cl)c1 [Compound 388]
128
